- TARGET_ENTITY: mGAT4 (Mus musculus, UniProt P31650)
- Construct: expressed in transfected cells; host or cells: HEK-293
- Sequence (P31650 1-627): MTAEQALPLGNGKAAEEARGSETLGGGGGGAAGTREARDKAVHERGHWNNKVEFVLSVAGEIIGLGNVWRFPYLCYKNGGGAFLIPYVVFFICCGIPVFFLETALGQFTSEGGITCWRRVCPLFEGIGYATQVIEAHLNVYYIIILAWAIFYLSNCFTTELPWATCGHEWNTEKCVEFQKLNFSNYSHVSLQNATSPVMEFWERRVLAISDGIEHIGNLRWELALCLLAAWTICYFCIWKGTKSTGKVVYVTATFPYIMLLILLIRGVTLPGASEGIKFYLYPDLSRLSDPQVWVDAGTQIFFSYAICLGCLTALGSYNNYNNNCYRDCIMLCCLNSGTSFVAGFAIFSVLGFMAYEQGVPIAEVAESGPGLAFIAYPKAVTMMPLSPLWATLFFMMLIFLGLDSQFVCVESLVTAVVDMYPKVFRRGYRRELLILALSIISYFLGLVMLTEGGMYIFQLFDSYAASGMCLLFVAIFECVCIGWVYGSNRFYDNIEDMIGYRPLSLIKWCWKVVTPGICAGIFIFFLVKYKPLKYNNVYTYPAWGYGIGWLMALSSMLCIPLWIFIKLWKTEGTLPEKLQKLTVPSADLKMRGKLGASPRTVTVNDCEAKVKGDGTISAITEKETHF
- METHOD_SUMMARY: [3H]GABA uptake assay in HEK-293 cells stably expressing mGAT4
- Type: cell-based
- ASSAY_CONTEXT: [3H]GABA uptake; read-out: pIC50 ± SEM mGAT4 (converted)
RECORDED_METRIC: IC50 (µM)

{"columns": ["MOLECULE", "UNIT_TEXT", "VALUE_REPORTED"],
 "data": [
  ["CN(CCON=C(c1ccccc1)c1ccccc1)C(CCO)C(=O)NCc1ccccc1Cl (centres unmarked) [Compound 47b]", "µM", 18.6],
  ["CC(O)CC(C(=O)NCc1ccc(F)cc1)N1CCC(=C2c3ccccc3CCc3ccccc32)CC1 (centres unmarked) [2RS,4RS-43b]", "µM", 47.9],
  ["Cc1ccc(CNC(=O)C(CO)N(C)CCC=C2c3ccccc3C=Cc3ccccc32)cc1 (centres unmarked) [Compound 55e]", "µM", 13.2],
  ["CN(CCC=C1c2ccccc2CCc2ccccc21)C(CO)C(=O)NCc1ccccc1Cl (centres unmarked) [Compound 56b]", "µM", 27.5],
  ["CN(CCC=C1c2ccccc2CCc2ccccc21)C(CO)C(=O)NCc1ccccc1 (centres unmarked) [Compound 56a]", "µM", 9.12]
]}

Reference source: paper PMC8397297
